Assay: Two-part crossover bioavailability and pharmacokinetics study of oral vs i.v. topotecan in patients with solid tumours (plasma, HPLC with fluorescence detection)
Conditions: human, plasma, iv, 1.5 mg m-2, half-life for the initial decline of the plasma concentration-time curve (t1/2 alpha), mean ± s.d.; ten patients fitted with a biexponential model
REPORTED ENDPOINT: half-life
Please don't drop the unit; write it after the number.

[Q] Entry under review: CC[C@@]1(O)C(=O)OCc2c1cc1n(c2=O)Cc2cc3c(CN(C)C)c(O)ccc3nc2-1 . Reported half-life?
[A] 11.2 min

###

Assay: clinical
Details: human, in vivo, iv, 1.5 mg, Cmax, i.v. (individual patients)
REPORTED ENDPOINT: Cmax

[Q] Entry under review: CC[C@@]1(O)C(=O)OCc2c1cc1n(c2=O)Cc2cc3c(CN(C)C)c(O)ccc3nc2-1 . Reported Cmax?
[A] 41.8 ng/mL

###

Assay: Two-part crossover bioavailability and pharmacokinetics study of oral vs i.v. topotecan in patients with solid tumours (plasma, HPLC with fluorescence detection)
Settings: human, plasma, po, 1.5 mg, Cmax, oral (individual patients), Table I, patients 1-12 in order; oral 1.5 mg m-2
REPORTED ENDPOINT: Cmax (ng/mL)
Give bare numbers, in ng/mL.

[Q] Entry under review: CC[C@@]1(O)C(=O)OCc2c1cc1n(c2=O)Cc2cc3c(CN(C)C)c(O)ccc3nc2-1 . Reported Cmax?
[A] 5.95

###

Assay: Two-part crossover bioavailability and pharmacokinetics study of oral vs i.v. topotecan in patients with solid tumours (plasma, HPLC with fluorescence detection)
Settings: human, plasma, iv, 1.5 mg m-2, t1/2 beta, after i.v.; the patient with the highest bioavailability of 45%
REPORTED ENDPOINT: half-life (h)
Answers are plain numbers, in h.

[Q] Entry under review: CC[C@@]1(O)C(=O)OCc2c1cc1n(c2=O)Cc2cc3c(CN(C)C)c(O)ccc3nc2-1 [topotecan] . Reported half-life?
[A] 1.8

###

Experiment: Two-part crossover bioavailability and pharmacokinetics study of oral vs i.v. topotecan in patients with solid tumours (plasma, HPLC with fluorescence detection)
Conditions: human, plasma, iv, 1.5 mg m-2, volume of distribution at steady state (Vd,ss), range, n=12
REPORTED ENDPOINT: Vd

[Q] Entry under review: CC[C@@]1(O)C(=O)OCc2c1cc1n(c2=O)Cc2cc3c(CN(C)C)c(O)ccc3nc2-1 [topotecan] . Reported Vd?
[A] 86 to 231 L

###

Assay: Two-part crossover bioavailability and pharmacokinetics study of oral vs i.v. topotecan in patients with solid tumours (plasma, HPLC with fluorescence detection)
Details: human, plasma, iv, 1.5 mg
From the text: […]
REPORTED ENDPOINT: clearance

[Q] Entry under review: CC[C@@]1(O)C(=O)OCc2c1cc1n(c2=O)Cc2cc3c(CN(C)C)c(O)ccc3nc2-1 [topotecan] . Reported clearance?
[A] 535 to 1070 mL/min

###

Experiment: Two-part crossover bioavailability and pharmacokinetics study of oral vs i.v. topotecan in patients with solid tumours (plasma, HPLC with fluorescence detection)
Details: human, plasma, iv, 1.5 mg m-2, volume of distribution at steady state (Vd,ss), mean ± s.d., n=12
REPORTED ENDPOINT: Vd (L)
Answers are plain numbers, in L.

[Q] Entry under review: CC[C@@]1(O)C(=O)OCc2c1cc1n(c2=O)Cc2cc3c(CN(C)C)c(O)ccc3nc2-1 [topotecan] . Reported Vd?
[A] 128

###

Assay: Two-part crossover bioavailability and pharmacokinetics study of oral vs i.v. topotecan in patients with solid tumours (plasma, HPLC with fluorescence detection)
Details: human, plasma, po, 1.5 mg m-2, t1/2 beta, mean, n=10
Description: […]
REPORTED ENDPOINT: half-life (h)
One number for each entry, in h.

[Q] Entry under review: CC[C@@]1(O)C(=O)OCc2c1cc1n(c2=O)Cc2cc3c(CN(C)C)c(O)ccc3nc2-1 . Reported half-life?
[A] 2.43

###

Experiment: Two-part crossover bioavailability and pharmacokinetics study of oral vs i.v. topotecan in patients with solid tumours (plasma, HPLC with fluorescence detection)
Conditions: human, plasma, po, 1.5 mg m-2, t1/2 beta, after oral administration; the patient with the highest bioavailability of 45%
REPORTED ENDPOINT: half-life (h)
Numbers only, in h.

[Q] Entry under review: CC[C@@]1(O)C(=O)OCc2c1cc1n(c2=O)Cc2cc3c(CN(C)C)c(O)ccc3nc2-1 . Reported half-life?
[A] 3.2
